The measured values listed here are drawn from patent US12622918B2.

Measured endpoint: IC50
Could you write the number and then its unit?

Recall the recorded IC50 for `CO[C@H]1/C=C/C[C@H](C)[C@@H](C)S(=O)(=O)NC(=O)c2ccc3c(c2)N(C[C@@H]2CC[C@H]21)C[C@@]1(CCCc2cc(Cl)ccc21)CO3` with Monkey MCL1 (Macaca fascicularis) and state it.
Sequence (A0A2K5W0Y7 1-346): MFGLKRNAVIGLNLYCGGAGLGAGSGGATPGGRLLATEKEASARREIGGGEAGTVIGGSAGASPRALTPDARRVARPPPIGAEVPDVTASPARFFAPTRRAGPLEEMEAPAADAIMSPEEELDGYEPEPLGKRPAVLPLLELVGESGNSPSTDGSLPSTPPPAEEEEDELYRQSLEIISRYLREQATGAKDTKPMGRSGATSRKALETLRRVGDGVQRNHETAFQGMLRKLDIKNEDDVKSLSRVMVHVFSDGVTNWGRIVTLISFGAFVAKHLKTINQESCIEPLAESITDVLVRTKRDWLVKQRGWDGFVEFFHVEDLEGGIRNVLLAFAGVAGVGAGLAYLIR
0.182 nM

====

# Tested on: OPM2 multiple myeloma tumor cell line
# Test method notes: Viability of OPM2 cells
# Type: cell-based
# Experimental context: Homo sapiens, OPM-2, serum-free growth medium
Measured endpoint: pIC50
# log scale: pIC50 equals minus log10 of the concentration in mol/L

Form field: reported pIC50 of `CO[C@H]1/C=C/C[C@H](C)[C@@H](C)S(=O)(=O)NC(=O)c2ccc3c(c2)N(C[C@@H]2CC[C@H]21)C[C@@]1(CCCc2cc(Cl)ccc21)CO3`
7.81

====

# Assay target: Dog MCL1 (Canis lupus familiaris, UniProt Q8HYS5)
# Sequence (Q8HYS5 whole entry): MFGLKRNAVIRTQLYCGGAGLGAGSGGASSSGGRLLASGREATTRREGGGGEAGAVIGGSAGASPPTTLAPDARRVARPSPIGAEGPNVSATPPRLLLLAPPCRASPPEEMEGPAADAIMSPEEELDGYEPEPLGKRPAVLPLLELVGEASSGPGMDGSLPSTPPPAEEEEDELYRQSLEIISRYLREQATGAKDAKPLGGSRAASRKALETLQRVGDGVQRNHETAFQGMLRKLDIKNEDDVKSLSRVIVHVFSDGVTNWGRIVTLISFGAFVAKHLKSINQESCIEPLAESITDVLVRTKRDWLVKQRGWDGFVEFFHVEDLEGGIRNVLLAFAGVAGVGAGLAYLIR
Measured endpoint: pIC50
# log scale: pIC50 equals minus log10 of the concentration in mol/L

Recall the recorded pIC50 for CO[C@H]1/C=C/C[C@H](C)[C@@H](C)S(=O)(=O)NC(=O)c2ccc3c(c2)N(C[C@@H]2CC[C@H]21)C[C@@]1(CCCc2cc(Cl)ccc21)CO3 [AMG 176] with Dog MCL1 (Canis lupus familiaris, UniProt Q8HYS5) and state it.
9.55

====

Measured endpoint: IC50
Could you write the number and then its unit?

Recall the recorded IC50 for CO[C@H]1/C=C/C[C@H](C)[C@@H](C)S(=O)(=O)NC(=O)c2ccc3c(c2)N(C[C@@H]2CC[C@H]21)C[C@@]1(CCCc2cc(Cl)ccc21)CO3 [AMG 176] with Rabbit MCL1 (Oryctolagus cuniculus) and state it.
Sequence (G1T2Q0 1-352): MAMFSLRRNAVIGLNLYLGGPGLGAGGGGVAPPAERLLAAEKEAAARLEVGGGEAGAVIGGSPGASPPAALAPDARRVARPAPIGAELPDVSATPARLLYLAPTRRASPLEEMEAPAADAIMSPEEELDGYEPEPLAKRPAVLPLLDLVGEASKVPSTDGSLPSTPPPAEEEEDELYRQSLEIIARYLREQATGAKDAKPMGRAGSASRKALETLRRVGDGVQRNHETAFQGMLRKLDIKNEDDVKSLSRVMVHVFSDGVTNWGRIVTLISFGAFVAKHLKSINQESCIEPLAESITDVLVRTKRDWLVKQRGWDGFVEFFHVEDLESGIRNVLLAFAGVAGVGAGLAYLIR
0.191 nM

====

# Assay target: Mouse MCL1 (Mus musculus, UniProt P97287)
# Sequence (P97287 whole entry): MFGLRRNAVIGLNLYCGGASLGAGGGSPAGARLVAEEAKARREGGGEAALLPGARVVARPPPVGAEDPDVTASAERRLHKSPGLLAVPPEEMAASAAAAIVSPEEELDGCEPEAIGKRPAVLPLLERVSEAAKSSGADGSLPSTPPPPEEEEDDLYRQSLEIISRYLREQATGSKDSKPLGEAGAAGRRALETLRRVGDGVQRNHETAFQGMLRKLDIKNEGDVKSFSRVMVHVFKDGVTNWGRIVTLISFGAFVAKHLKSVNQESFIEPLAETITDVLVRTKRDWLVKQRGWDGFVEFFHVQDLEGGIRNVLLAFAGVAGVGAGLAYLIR
Measured endpoint: pIC50
# log scale: pIC50 equals minus log10 of the concentration in mol/L

Recall the recorded pIC50 for `CO[C@H]1/C=C/C[C@H](C)[C@@H](C)S(=O)(=O)NC(=O)c2ccc3c(c2)N(C[C@@H]2CC[C@H]21)C[C@@]1(CCCc2cc(Cl)ccc21)CO3` with Mouse MCL1 (Mus musculus, UniProt P97287) and state it.
7.30

====

# System: MM1R
# Test method notes: Cell viability (CellTiterGlo), MM1R
# Format: cell-based
# Experimental context: MM.1R, Multiple myeloma, 24 hours, 10% FBS, read-out: AMS 176 IC50
Measured endpoint: pIC50
# log scale: pIC50 equals minus log10 of the concentration in mol/L

Recall the recorded pIC50 for `CO[C@H]1/C=C/C[C@H](C)[C@@H](C)S(=O)(=O)NC(=O)c2ccc3c(c2)N(C[C@@H]2CC[C@H]21)C[C@@]1(CCCc2cc(Cl)ccc21)CO3` with MM1R and state it.
5.94

====

# System: RL
# Test method notes: Cell viability (CellTiterGlo), RL
# Format: cell-based
# Experimental context: Homo sapiens, NHL, 24 hours, 10% FBS, high dose 20 μM, read-out: AMS 176 IC50
pIC50: −log10 of the molar value.
Measured endpoint: pIC50

Form field: reported pIC50 of `CO[C@H]1/C=C/C[C@H](C)[C@@H](C)S(=O)(=O)NC(=O)c2ccc3c(c2)N(C[C@@H]2CC[C@H]21)C[C@@]1(CCCc2cc(Cl)ccc21)CO3`
< 4.70
